The following compounds are listed with their measured kobs /[I] values.
Molecular target: Der p I (Dermatophagoides pteronyssinus, UniProt P08176)
Construct: tissue SmithKline-Beecham (crude mite extract); host or cells: house dust mite extract, purified on immobilised anti-Der p I antibody 4C1
Experiment: Inhibition (inactivation) kinetics of Der p I, fluorogenic substrate assay
Assay type: biochemical
Conditions: second order inactivation rate constant; 50 mM potassium phosphate pH 8.25, 1 mM EDTA, 1 mM DTT, 25° C.; purified Der p I
reported_property: kobs /[I]

>>> df
                                   compound       value_measured
0  CCOC(=O)/C=C/[C@H](CC(C)C)NC(=O)[C@H](C)NC(=O)[C@@H](NC(=O)N(c1ccccc1)c1ccccc1)C(C)C [Compound 30]  7.5 × 10^3 M^- s^-1
1  CCOC(=O)/C=C/[C@H](CC(C)C)NC(=O)[C@H](C)NC(=O)[C@@H](NC(=O)c1ccccc1C(F)(F)F)C(C)C [Compound 27]  6.3 × 10^3 M^- s^-1
2  CCCC[C@H](NC(=O)[C@H](C)NC(=O)[C@@H](NC(=O)c1ccccc1)C(C)C)C(=O)NOC(=O)c1c(C)cccc1C [Compound 16]  1.6 × 10^4 M^- s^-1
3  CCCC[C@H](NC(=O)[C@H](C)NC(=O)[C@@H](NC(=O)c1ccccc1)C(C)C)C(=O)COC(=O)c1c(C)cccc1C [Compound 4]  1.6 × 10^7 M^- s^-1

----------
Target: Der p I (Dermatophagoides pteronyssinus)
Construct: tissue SmithKline-Beecham (crude mite extract); host or cells: house dust mite extract, purified on immobilised anti-Der p I antibody 4C1
Sequence (P08176 99-320): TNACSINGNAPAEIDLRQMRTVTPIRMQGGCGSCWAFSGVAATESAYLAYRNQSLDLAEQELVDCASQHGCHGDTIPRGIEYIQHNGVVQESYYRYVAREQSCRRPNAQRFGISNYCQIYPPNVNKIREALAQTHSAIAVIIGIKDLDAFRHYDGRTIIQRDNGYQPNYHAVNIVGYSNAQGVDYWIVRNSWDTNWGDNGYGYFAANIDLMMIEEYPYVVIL
Assay: Inhibition (inactivation) kinetics of Der p I, fluorogenic substrate assay
Assay type: biochemical
Details: second order inactivation rate constant; 50 mM potassium phosphate pH 8.25, 1 mM EDTA, 1 mM DTT, 25° C.; purified Der p I
reported_property: kobs /[I]

>>> df
                                    compound       value_measured
 0  CCOC(=O)/C=C/[C@H](CC(C)C)NC(=O)[C@H](C)NC(=O)[C@@H](NC(=O)Nc1ccccc1)C(C)C [Compound 29]  4.6 × 10^3 M^- s^-1
 1  CCOC(=O)/C=C/[C@H](CC(C)C)NC(=O)[C@H](C)NC(=O)[C@@H](NC(=O)c1ccccc1)C(C)C [Compound 26]  4.1 × 10^3 M^- s^-1
 2  CCOC(=O)/C=C/[C@H](CC(C)C)NC(=O)[C@H](C)NC(=O)[C@@H](NC(=O)c1ccc2c(c1)OCO2)C(C)C [Compound 28]  6.8 × 10^3 M^- s^-1
 3  CCCC[C@H](NC(=O)[C@H](C)NC(=O)[C@@H](NC(=O)c1ccccc1)C(C)C)C(=O)COC(=O)c1c(Cl)cccc1Cl [Compound 13]  6.6 × 10^5 M^- s^-1
 4  CCOC(=O)/C=C/[C@H](CC(C)C)NC(=O)[C@H](C)NC(=O)[C@@H](NC(=O)OC(C)(C)C)C(C)C [Compound 23]  1.7 × 10^3 M^- s^-1
 5  CCCC[C@H](NC(=O)[C@H](C)NC(=O)[C@@H](NC(=O)c1ccccc1)C(C)C)C(=O)COC(=O)c1ccccc1 [Compound 7]  3.7 × 10^5 M^- s^-1
 6  CCCC[C@H](NC(=O)[C@H](C)NC(=O)[C@@H](NC(=O)c1ccccc1)C(C)C)C(=O)COC(=O)c1c(Cl)cccc1Cl [Compound 6]  6.8 × 10^7 M^- s^-1
 7  CCCC[C@H](NC(=O)[C@H](C)NC(=O)[C@@H](NC(=O)c1ccccc1)C(C)C)C(=O)NOC(=O)c1ccccc1 [Compound 15]  1.5 × 10^5 M^- s^-1
 8  CCOS(=O)(=O)/C=C/[C@H](CC(C)C)NC(=O)[C@H](C)NC(=O)[C@@H](NC(=O)OC(C)(C)C)C(C)C [Compound 40]  6.9 × 10^4 M^- s^-1
 9  CCCC[C@H](NC(=O)[C@H](C)NC(=O)[C@@H](NC(=O)c1ccccc1)C(C)C)C(=O)COC(=O)[C@@H](CO)NC(=O)OCc1ccccc1 [Compound 11]  1.2 × 10^6 M^- s^-1
10  CCOC(=O)/C=C/[C@H](CC(C)C)NC(=O)[C@H](C)NC(=O)[C@@H](NC(=O)C1c2ccccc2Oc2ccccc21)C(C)C [Compound 34]  1.1 × 10^4 M^- s^-1
11  CCCC[C@H](NC(=O)[C@H](C)NC(=O)[C@@H](NC(=O)c1ccccc1)C(C)C)C(=O)COC(=O)c1c(F)c(F)c(F)c(F)c1F [Compound 8]      > 10^7 M^- s^-1
12  CC(C)C[C@@H](/C=C/C(=O)OCC(F)(F)F)NC(=O)[C@H](C)NC(=O)[C@@H](NC(=O)OC(C)(C)C)C(C)C [Compound 25]  3.1 × 10^3 M^- s^-1

Where do these numbers come from? They come from patent US6034066A.
